These entries and their values trace back to PubChem BioAssay (Tox21).

Assay: Caspase-3/7 induction in HepG2 cells by small molecules, qHTS cell viability counter screen (AID 1346981); note: nearly all actives have a fitted effect of over 30% in size
Conditions: CellTiter-Fluor fluorescence, 17 h; series mostly up to 92.4 µM
Description: U.S. Tox21 Program National Center for Advancing Translational Sciences [NCATS] NIH Chemical Genomics Center [NCGC] U.S. Environmental Protection Agency [EPA] National Institutes of Environmental Health Sciences [NIEHS] National Toxicology Program [NTP] U.S. Food and Drug Administration [FDA] Tox21 Assay Overview: Apoptosis is a process of programmed cell death and plays a central role in the development of multicellular organisms. […]
Results filed as inconclusive are left out. Activity calls are given as the source filed them. Calls come from the whole dose curve; as a rule, active = well fitted cell-killing curve with a large enough effect in the repeat runs; inconclusive = weak or mixed curves, or effect the other way; inactive = flat fitted curve, though single readings scatter.

{"COMPOUND": "Sc1nc2ccccc2s1", "outcome": "inactive"}
{"COMPOUND": "CC[N+](CC)(CC)CCOc1ccc(/C=C/c2ccccc2)cc1", "outcome": "inactive"}
{"COMPOUND": "Clc1nnc(Cl)c2ccccc12", "outcome": "inactive"}
{"COMPOUND": "CN1CCN2c3ccccc3Cc3ccccc3C2C1 (configuration not stated)", "outcome": "inactive"}
{"COMPOUND": "CC(C)NC[C@@H](O)COc1ccc(CC(N)=O)cc1", "outcome": "inactive"}
{"COMPOUND": "CCCCC(CC)CN1CN(CC(CC)CCCC)CC(C)(N)C1 (configuration not stated)", "outcome": "inactive"}
{"COMPOUND": "c1ccc(SSc2ccccc2)cc1", "outcome": "inactive"}

----------
assay: qHTS assay for small molecule agonists of the p53 signaling pathway (AID 651631); settings: HCT-116 p53RE-bla reporter, beta-lactamase FRET ratio, 16 h; series mostly up to 73.3 µM; note: nearly all actives have a fitted effect of over 15% in size
Records with an inconclusive call do not appear. Calls of active or inactive are those of the source. The call rests on the fitted dose curve.
Classes used: Yes for active, No for inactive

{"COMPOUND": "C[Si](Cl)(c1ccccc1)c1ccccc1", "CATEGORY": "No"}
{"COMPOUND": "O=C(/C=C/c1ccc(O)c(O)c1)O[C@@H](C(=O)O)[C@@H](OC(=O)/C=C/c1ccc(O)c(O)c1)C(=O)O", "CATEGORY": "No"}
{"COMPOUND": "CCCCCCOC(=O)C(C)CC (stereo unspecified)", "CATEGORY": "No"}
{"COMPOUND": "O=C1C(c2[nH]c3ccc(S(=O)(=O)O)cc3c2O)=Nc2ccc(S(=O)(=O)O)cc21", "CATEGORY": "No"}
{"COMPOUND": "CC1(C)CC(O)CC(C)(C)N1", "CATEGORY": "No"}
{"COMPOUND": "CCCCCCC1CCCC(=O)O1 (stereo unspecified)", "CATEGORY": "No"}
{"COMPOUND": "C1CCC(SSC2CCCCC2)CC1", "CATEGORY": "No"}
{"COMPOUND": "COc1c(C)c2c(c(O)c1C/C=C(\\C)CCC(=O)OCCN1CCOCC1)C(=O)OC2", "CATEGORY": "Yes"}
{"COMPOUND": "CCC(=O)OC(=O)CC", "CATEGORY": "No"}
{"COMPOUND": "Cc1ccc(-c2ccccc2)cc1", "CATEGORY": "No"}
{"COMPOUND": "Cc1ccc(N/N=c2\\c(=O)cc/c(=N\\Nc3ccc(S(=O)(=O)O)cc3)c2=O)c(C)c1", "CATEGORY": "No"}
{"COMPOUND": "O=C(O)[C@H](O)[C@@H](O)[C@H](O[C@@H]1O[C@H](CO)[C@H](O)[C@H](O)[C@H]1O)[C@H](O)CO", "CATEGORY": "No"}
{"COMPOUND": "CCc1ccc(Br)cc1", "CATEGORY": "No"}
{"COMPOUND": "CN(C)Cc1cc(C(C)(C)C)c(O)c(C(C)(C)C)c1", "CATEGORY": "No"}
{"COMPOUND": "c1cnccn1", "CATEGORY": "No"}
{"COMPOUND": "OC[C@H]1O[C@H](O[C@H]2O[C@H](CO)[C@@H](O)[C@H](O)[C@H]2O)[C@H](O)[C@@H](O)[C@@H]1O", "CATEGORY": "No"}

----------
experiment: qHTS assay to identify small molecule agonists of the NFkB signaling pathway - cell viability counter screen (AID 1159515); settings: NFkB-bla ME-180 viability, CellTiter-Glo luminescence, 5 h; series mostly up to 61 µM; note: nearly all actives have a fitted effect of over 55% in size
Records with an inconclusive call do not appear. Calls of active or inactive are those of the source. Calls follow the shape of the full dose curve.
Labels: active, inactive

{"COMPOUND": "OC/C=C/CO", "CATEGORY": "inactive"}
{"COMPOUND": "[Cl][Pt-2]([Cl])([Cl])[Cl]", "CATEGORY": "inactive"}
{"COMPOUND": "O=C(O)Cc1ccccc1Nc1c(Cl)cccc1Cl", "CATEGORY": "inactive"}
{"COMPOUND": "CC(C)NC[C@@H](O)COc1ccc(CC(N)=O)cc1", "CATEGORY": "inactive"}
{"COMPOUND": "CCCCCCCCCCCC(=O)OCC(C)OC(=O)CCCCC(=O)O (configuration not stated)", "CATEGORY": "inactive"}
{"COMPOUND": "Nc1nc2c(ncn2COCCO)c(=O)[nH]1", "CATEGORY": "inactive"}
{"COMPOUND": "CCc1oc2ccccc2c1C(=O)c1cc(I)c(O)c(I)c1", "CATEGORY": "inactive"}
{"COMPOUND": "CCN1C(=O)c2ccccc2C1Nc1ccc(OCCN2CCCCC2)cc1 (configuration not stated)", "CATEGORY": "inactive"}
{"COMPOUND": "CC1=Nc2ccccc2C1(C)C", "CATEGORY": "inactive"}
{"COMPOUND": "O=C1OC2(c3ccc(O)cc3Oc3cc(O)ccc32)c2ccc(N=C=S)cc21", "CATEGORY": "inactive"}
{"COMPOUND": "CCO[C@@H]1O[C@H](C(COCc2ccccc2)OCc2ccccc2)[C@H](OCc2ccccc2)[C@H]1O (some centres not stated)", "CATEGORY": "active"}
{"COMPOUND": "C/C=C/C=C/COC(=O)C(C)C", "CATEGORY": "inactive"}
{"COMPOUND": "CC(=O)c1ccc(C(C)=O)cc1", "CATEGORY": "inactive"}
{"COMPOUND": "O=[N+]([O-])c1ccc(O)cc1C(F)(F)F", "CATEGORY": "inactive"}
{"COMPOUND": "CCO[Si](OCC)(OCC)OCC", "CATEGORY": "inactive"}
{"COMPOUND": "C#CC1(O)CC[C@H]2[C@@H]3CCC4=CCCC[C@@H]4[C@H]3CC[C@@]21C (some centres not stated)", "CATEGORY": "active"}
{"COMPOUND": "CCc1cccc(CC)c1NC(=O)CN(CC(=O)O)CC(=O)O", "CATEGORY": "inactive"}
{"COMPOUND": "O=[N+]([O-])c1cccc(C(F)(F)F)c1", "CATEGORY": "inactive"}
{"COMPOUND": "COC(=O)C1=C(C)NC(C)=C(C(=O)OCCN2CCN(C(c3ccccc3)c3ccccc3)CC2)C1c1cccc([N+](=O)[O-])c1 (configuration not stated)", "CATEGORY": "inactive"}
{"COMPOUND": "CC(C)=CCC1=C(O)c2ccccc2C(=O)C1=O", "CATEGORY": "inactive"}
{"COMPOUND": "O=C(O)c1cc(=O)c2ccccc2o1", "CATEGORY": "inactive"}
{"COMPOUND": "COc1ccc(-c2coc3cc(O)ccc3c2=O)cc1", "CATEGORY": "inactive"}
{"COMPOUND": "O=c1[nH]c2ccccc2n1CCCN1CCN(C(c2ccccc2)c2ccccc2)CC1", "CATEGORY": "inactive"}
{"COMPOUND": "CC(CCc1ccccc1)NCC(O)c1ccc(O)c(C(N)=O)c1 (configuration not stated)", "CATEGORY": "inactive"}
{"COMPOUND": "CN(C)C(=O)COC(=O)Cc1ccc(OC(=O)c2ccc(N=C(N)N)cc2)cc1", "CATEGORY": "inactive"}
{"COMPOUND": "CCC(C)(CCC(C)C)C(=O)[O][Sn]([CH3])([CH3])[O]C(=O)C(C)(CC)CCC(C)C (configuration not stated)", "CATEGORY": "inactive"}
{"COMPOUND": "Cc1ccc(-c2ccccc2)cc1", "CATEGORY": "inactive"}
{"COMPOUND": "CC(C)Cn1cnc2c(N)nc3ccccc3c21", "CATEGORY": "inactive"}
{"COMPOUND": "CN1CCN2c3ccccc3Cc3ccccc3C2C1 (configuration not stated)", "CATEGORY": "inactive"}
{"COMPOUND": "CC(C)(C)c1csc(-c2cc3cc(OCc4ccccc4CC(=O)O)ccc3o2)n1", "CATEGORY": "inactive"}
{"COMPOUND": "Nc1nc(-c2ccccc2)cs1", "CATEGORY": "inactive"}
{"COMPOUND": "Cc1ccc(N/N=c2\\c(=O)cc/c(=N\\Nc3ccc(S(=O)(=O)O)cc3)c2=O)c(C)c1", "CATEGORY": "inactive"}
